Each recorded value in this set is attributed to patent US20220144940A1.

# ASSAYED SYSTEM: T1, HA-tagged human ILT7 on CT-550 cells (human, UniProt P59901 24-499)
# T1 construct: whole, on cells; CT-550 cells: CT-125 cells (2B4 murine T-cell hybridoma with mouse FcεRIγ and NFAT-GFP reporter) transduced with HA-tagged human ILT7; also called human ILT7-expressing cells; not shown: HA tag
# T1 sequence (P59901 24-499): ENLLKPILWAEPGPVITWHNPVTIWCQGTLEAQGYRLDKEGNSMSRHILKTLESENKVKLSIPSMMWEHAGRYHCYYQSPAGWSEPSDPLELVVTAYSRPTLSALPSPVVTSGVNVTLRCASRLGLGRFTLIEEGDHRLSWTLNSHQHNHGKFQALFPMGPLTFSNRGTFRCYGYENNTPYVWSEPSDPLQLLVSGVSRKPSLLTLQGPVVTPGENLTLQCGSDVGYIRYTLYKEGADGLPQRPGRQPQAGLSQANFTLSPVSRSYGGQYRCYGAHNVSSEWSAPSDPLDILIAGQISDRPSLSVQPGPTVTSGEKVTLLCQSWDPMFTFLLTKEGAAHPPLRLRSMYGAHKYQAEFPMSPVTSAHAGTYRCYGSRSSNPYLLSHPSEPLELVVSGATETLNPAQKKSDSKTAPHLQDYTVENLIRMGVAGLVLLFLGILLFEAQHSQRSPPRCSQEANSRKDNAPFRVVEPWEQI
# ASSAY REMARKS: flow cytometry on human ILT7-expressing cells, left panel 'Human ILT7', table 'Ec50 (nM)'
Quick reference for EC50 among some binders
Express the result in nM but write the number alone.

Known EC50 results, listed for orientation:
>>> assay_value("ILT70083 (antibody, V domains shown) VH: EVQLLESGGGLVQPGGSLRLSCAASGFTFSSYAMSWVRQAPGKGLEWVSAISGSGGSTYYADSVKGWFTISRDNSKNTLYLQMNSLRAEDTAVYYCARRTYYYDSDGHSDVFDIWGRGTLVTVSS VL: QSVVTQPPSVSAAPGQKVTISCSGSASNIGSNFVSWYQQLPGRAPKLLIYDNDKRDLGIPDRFSASISSTSAALAITGLQTEDEADYYCGTWDTSLTVGVFGGGTKLTVL")
0.25
>>> assay_value("ILT70080 (antibody, V domains shown, also called ITL70080) VH: QVQLVQSGAEVKAPGTSVKVSCKASGDSFRNYAVSWVRQAPGQGLEWMGAMMPSFGTREHSQQFNGRVTLSADESTSTAYLELSSLRYDDTAVYYCAGSRDYNAYHFWTGPPDFWGRGTLVTVSS VL: SYELTQPPSVSVAPGKTAKISCGGDSVGSTSVHWYQQKPGQAPVMVMFYNSDRPSGIPERFSGSISGNTATLTISRVEAGDEADYYCQVWDTSSDHPEFGGGTKLTVL")
0.3
>>> assay_value("afucosylated ILT70083 (antibody, V domains shown, afucosylated: lacks the α-1,6 fucose moiety on the N-glycan at Asn-297 of the heavy chain) VH: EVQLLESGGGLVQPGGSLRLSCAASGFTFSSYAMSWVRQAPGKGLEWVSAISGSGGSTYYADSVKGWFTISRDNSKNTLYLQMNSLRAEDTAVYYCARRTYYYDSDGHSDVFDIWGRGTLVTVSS VL: QSVVTQPPSVSAAPGQKVTISCSGSASNIGSNFVSWYQQLPGRAPKLLIYDNDKRDLGIPDRFSASISSTSAALAITGLQTEDEADYYCGTWDTSLTVGVFGGGTKLTVL")
0.38

As a next step, examine the binder that follows.
EC50 for afucosylated ILT70080 (antibody, V domains shown, afucosylated: lacks the α-1,6 fucose moiety on the N-glycan at Asn-297 of the heavy chain, also called Afucosylated variant ITL70080) VH: QVQLVQSGAEVKAPGTSVKVSCKASGDSFRNYAVSWVRQAPGQGLEWMGAMMPSFGTREHSQQFNGRVTLSADESTSTAYLELSSLRYDDTAVYYCAGSRDYNAYHFWTGPPDFWGRGTLVTVSS VL: SYELTQPPSVSVAPGKTAKISCGGDSVGSTSVHWYQQKPGQAPVMVMFYNSDRPSGIPERFSGSISGNTATLTISRVEAGDEADYYCQVWDTSSDHPEFGGGTKLTVL ?
0.34
